# tested.target: KV4.2 (Rattus norvegicus, UniProt Q63881)
# Construct: expressed in transfected cells; host or cells: LTK
# Sequence (Q63881 1-630): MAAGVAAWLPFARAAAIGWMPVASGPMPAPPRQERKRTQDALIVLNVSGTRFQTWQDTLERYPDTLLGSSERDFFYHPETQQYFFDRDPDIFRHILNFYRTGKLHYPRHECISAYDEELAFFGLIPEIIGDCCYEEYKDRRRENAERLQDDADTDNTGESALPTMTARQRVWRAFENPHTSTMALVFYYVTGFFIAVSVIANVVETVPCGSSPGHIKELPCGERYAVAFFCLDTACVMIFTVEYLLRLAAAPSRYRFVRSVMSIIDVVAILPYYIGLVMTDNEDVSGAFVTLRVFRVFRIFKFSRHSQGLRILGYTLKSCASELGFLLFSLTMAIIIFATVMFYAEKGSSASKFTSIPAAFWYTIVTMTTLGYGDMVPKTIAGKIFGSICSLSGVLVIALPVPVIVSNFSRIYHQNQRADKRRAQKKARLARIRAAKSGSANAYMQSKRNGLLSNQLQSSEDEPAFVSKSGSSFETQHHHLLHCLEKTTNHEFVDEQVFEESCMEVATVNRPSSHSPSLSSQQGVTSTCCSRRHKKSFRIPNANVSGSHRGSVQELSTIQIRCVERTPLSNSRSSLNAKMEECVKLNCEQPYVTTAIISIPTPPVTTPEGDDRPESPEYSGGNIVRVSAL
# experimental.details: Potassium channels patch-clamp (QPatch), KV4.2
# Type: cell-based
property.measured: IC50

# structure.smiles.string, tested.target, property.measured, result
rows = [
    ("COC(=O)C1=C(C)NC(C)=C(C(=O)OC)C1c1ccc(F)c(C(F)(F)F)c1", "KV4.2 (Rattus norvegicus, UniProt Q63881)", "IC50", "> 10 µM"),
]

Okay, now this molecule:
Req: Give the measured IC50 for COC(=O)C1=CNC=C(C(=O)OC)C1c1ccc(F)c(C(F)(F)F)c1
Resp: > 10 µM
